Where do these numbers come from? They come from PubChem BioAssay AID504332.

target: Histone-lysine N-methyltransferase EHMT2 (Homo sapiens); assay: qHTS Assay for Inhibitors of Histone Lysine Methyltransferase G9a; details: G9a H3K9 monomethylation, AlphaScreen, 2 h; series mostly up to 59 µM; also: nearly all actives have a fitted effect of over 75% in size
Among all 350,000 compounds or so, about 31,000 (8.9%) were called active. Not shown: some 15% with an inconclusive outcome. Calls follow the shape of the dose curve; as a rule, active = well fitted inhibition curve with a large enough effect; inconclusive = small, poorly fitted or top-dose-only effect; inactive = no such curve, though single readings can be large or run the other way. The sample as a whole holds a higher share of actives than the screen did.
Outcome codes: 1 (active), -1 (inactive)

INSERT INTO results (compound, assigned_category) VALUES
  ('CCOC(=O)c1c(-c2ccc(-c3ccccc3)cc2)csc1NC(=O)CCC(=O)O', -1),
  ('CCOC(=O)c1c(-c2ccc(C)cc2)csc1/N=C(\C)C1=C(O)c2ccccc2C1=O', 1),
  ('Cc1cc(NC(=O)CCN2CCN(Cc3ccccc3)CC2)ccc1Br', 1),
  ('O=C1CCN(C(=O)Nc2ccccc2)N1', 1),
  ('O=C(Cn1c(=O)n(-c2ccc(F)cc2)c(=O)c2sc3ccccc3c21)NC1CCCC1', -1),
  ('O=C(CCN1CCN(C/C=C/c2ccccc2)CC1)Nc1cccc(F)c1', -1),
  ('N#C/C(=C/c1ccc(N2CCCCC2)o1)C(=O)NCCc1c[nH]c2ccccc12', 1),
  ('Cc1cccc(C(=O)N2CCc3c([nH]c4ccccc34)C2CC(C)C)n1 (stereo unspecified)', -1),
  ('CC(=O)Nc1ccc(S(=O)(=O)N2CCCC2C(=O)O)cc1 (stereo unspecified)', -1),
  ('CC(C)OCCCNc1nc2c(c(=O)n(Cc3ccccc3F)c(=O)n2C)n1C', 1),
  ('O=C(NNC(=S)NCCCN1CCOCC1)c1ccncc1', 1),
  ('Nc1ccc(OCC(O)C[n+]2ccc(CCS(=O)(=O)[O-])cc2)cc1 (stereo unspecified)', 1),
  ('COc1cc(NC(=O)CSc2nc3nc(C)c(Cc4ccc(C)cc4)c(C)n3n2)cc(OC)c1OC', -1),
  ('CS(=O)(=O)Nc1ccc(C2=NN(S(C)(=O)=O)C(c3cccs3)C2)cc1 (stereo unspecified)', -1),
  ('CCOC(=O)CSc1nc2sc3c(c2c(=O)[nH]1)CC(C)(C)OC3', -1),
  ('COC(=O)c1ccc2c(c1)N(CC(=O)Nc1ccc(C)c(C)c1)C(=O)c1ccccc1S2', -1),
  ('COc1ccc(-n2c(SCC(=O)Nc3ccc(Cl)c(C)c3)nc3n[nH]c(C)c3c2=N)cc1', -1),
  ('O=C(Nc1ccccc1C(=O)N1CCOCC1)c1ccc(Cl)cc1', -1),
  ('CCOc1ccc(-c2nnc3ccc(SC)nn23)cc1', -1),
  ('CCOc1ccccc1/C=N/Nc1nc2ccccc2o1', -1),
  ('Cc1ccc(NC(=O)c2sc3nc(N)c(C#N)cc3c2N)cc1', 1),
  ('CCOC(=O)c1cc2c(=O)n3ccccc3nc2n(CC2CCCO2)c1=NC(=O)c1ccccc1F (stereo unspecified)', -1),
  ('Cc1ccc(S(=O)(=O)N2CCC(C(=O)OCC(=O)N(C)c3ccccc3)CC2)cc1C', -1),
  ('CCOc1cccc(CC(=O)N2CCc3c([nH]c4ccccc34)C2c2ccc(F)cc2)c1OCC (stereo unspecified)', -1),
  ('O=C(NCc1cccs1)c1ccc2c(c1)ncn2C1CCCC1', 1),
  ('COC(=O)c1ccc(CSc2ccc3nnc(-c4ccccc4)n3n2)o1', -1),
  ('CC(=O)c1ccc(NC(=O)C2CCCN2S(=O)(=O)c2cccs2)cc1 (stereo unspecified)', -1),
  ('COc1cccc(NC(=S)NCCCN2CCOCC2)c1', -1),
  ('COCc1ccc(C(=O)N2CCc3c([nH]c4ccccc34)C2c2ccccn2)s1 (stereo unspecified)', 1),
  ('CCOC(=O)Cn1c(SC)nc2sc3c(c2c1=O)CC(C)(C)OC3', -1),
  ('CC(C)=CCCC(C)CN1CCC(n2nccc2NC(=O)c2ccccc2)CC1 (stereo unspecified)', -1),
  ('O=C(NCc1ccc(Cl)cc1)c1ccc2c(c1)nnn2C1CCCC1', -1),
  ('CC1Cc2ccccc2N1C(=O)CSc1nnc(-c2ccc(S(=O)(=O)N3CCCC3)cc2)n1C (stereo unspecified)', -1),
  ('Cc1ccc(CCN2CC(C(=O)O)CC2=O)cc1 (stereo unspecified)', -1),
  ('COC(=O)c1ccc(COC(=O)CNC(=O)c2cccc(OC)c2)o1', -1),
  ('CC1(C)Cc2c(sc(NC(=O)C(=O)N3CCOCC3)c2C#N)CO1', 1);
